assay: Phase 1 crossover PK study: oral solution fed/fasted vs IV infusion in healthy subjects; format: in vivo, human; conditions: human, plasma, po, 3.3 mg/kg, human, 3.3 mg/kg, fasted state (Cmax and AUC based); read-out: oral bioavailability
metric_name: bioavailability

Cn1cc(C2=C(c3coc4ccc(F)cc34)C(=O)NC2=O)c2cc3c(cc21)OCO3 [elraglusib] | 5 to 21%

---

assay: Quantitative solubility by HPLC in organic solvents and surfactants; format: physicochemical; settings: organic solvent or mixture, thermodynamic from solid; DCM:Acetone (1:1), no surfactant; read-out: Solubility (n = 2) by HPLC
metric_name: solubility (mg/mL)

Cn1cc(C2=C(c3coc4ccc(F)cc34)C(=O)NC2=O)c2cc3c(cc21)OCO3 | 19.8

---

Experiment: Quantitative solubility by HPLC in organic solvents and surfactants
Format: physicochemical
Details: THF with Labrasol 10% w/v, organic solvent or mixture, thermodynamic from solid; THF, Labrasol 10% w/v; read-out: Solubility (n = 2) by HPLC
Source text: The HPLC method 1 was used for solubility, stability monitoring at 438 nm, and drug loading measurements of the ASD is summarized in Table 2A-31 and the HPLC method 2 was used for stability monitoring at 210 nm, which is summarized in Table 2A-32.
metric_name: solubility

Cn1cc(C2=C(c3coc4ccc(F)cc34)C(=O)NC2=O)c2cc3c(cc21)OCO3 | 52.3 mg/mL

---

experiment: Quantitative solubility by HPLC in organic solvents and surfactants; type: physicochemical; conditions: THF with TPGS 10% w/v, organic solvent or mixture, thermodynamic from solid; THF, TPGS 10% w/v; read-out: Solubility (n = 2) by HPLC
metric_name: solubility (mg/mL)

Cn1cc(C2=C(c3coc4ccc(F)cc34)C(=O)NC2=O)c2cc3c(cc21)OCO3 | 46.8

---

experiment: Phase 1 crossover PK study: oral solution fed/fasted vs IV infusion in healthy subjects; assay type: in vivo, human; conditions: human, plasma, iv, 3.3 mg/kg, IV infusion 3.3 mg/kg, human plasma; read-out: Cmax Median
metric_name: Cmax (ng/mL)

Cn1cc(C2=C(c3coc4ccc(F)cc34)C(=O)NC2=O)c2cc3c(cc21)OCO3 [elraglusib] | 1570

---

assay: Phase 1 crossover PK study: oral solution fed/fasted vs IV infusion in healthy subjects; format: in vivo, human; conditions: human, plasma, po, 3.3 mg/kg, oral 3.3 mg/kg fasted state, human plasma; read-out: AUC48 GMean
metric_name: AUC (ng·h/mL)

Cn1cc(C2=C(c3coc4ccc(F)cc34)C(=O)NC2=O)c2cc3c(cc21)OCO3 | 1340

---

assay: Phase 1 crossover PK study: oral solution fed/fasted vs IV infusion in healthy subjects; type: in vivo, human; settings: human, plasma, po, 3.3 mg/kg, oral 3.3 mg/kg fasted state, human plasma; read-out: AUC∞ Arithmetic Mean
metric_name: AUC(0-inf) (ng·h/mL)

Cn1cc(C2=C(c3coc4ccc(F)cc34)C(=O)NC2=O)c2cc3c(cc21)OCO3 | 1810
